Tested on: 24-hydroxylase (24Ohase) gene promoter in ROS 17/2.8 (bone) cells
Test: In vitro transcription assay (24-hydroxylase gene promoter luciferase reporter)
Assay type: cell-based
Details: ROS 17/2.8 cells, 24-hydroxylase promoter-luciferase; FIG. 3; read-out: EC50, transcriptional activity in bone cells
MEASUREMENT_NAME: EC50
Write the quantity with the unit trailing the number.

C=C1[C@H](O)CC(=C/C=C2\CCC[C@]3(C)[C@@H]([C@H](C)/C=C/C[C@@H](C)O)CC[C@@H]23)C[C@H]1O [RR-22] | 0.02 nM

// moving on: another record for EC50
(Q) Which measured EC50 value corresponds to C=C1/C(=C\C=C2/CCC[C@]3(C)[C@@H]([C@H](C)CCCC(C)(C)O)CC[C@@H]23)C[C@@H](O)C[C@@H]1O [1,25(OH)2D3, 1α,25-dihydroxyvitamin D3, reference compound] ?
(A) 0.2 nM

These data points were gathered from patent US8193170B2.
